# Test Name: chemical genetic growth profiling, strain panel (AID 1159580);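 note: tested at 20 µM; growth read once vehicle control cultures reached saturation at 30 °C; lower values mean less growth of the strain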
# Experimental Conditions: S. cerevisiae deletion strains, growth OD, locus YBL061C, strain skt5
Screen size: about 5,500 compounds; about 2,000 (36%) were called active. Not shown: some 18% with an inconclusive outcome. Cut-off read from the data, not from the text of the source: active = normalized growth mostly below about 0.91 (no sharp cut-off); inconclusive = no clear call, values can overlap the other calls; inactive = mostly above about 0.92. Some of the results follow.
Labels: TRUE for active, FALSE for inactive

| Molecule | Group Label |
| --- | --- |
| Oc1c(Cl)cc(Cl)cc1Sc1cc(Cl)cc(Cl)c1O | TRUE |
| CC(=O)Oc1ccc(C(c2ccc(OC(C)=O)cc2)c2ccccn2)cc1 | FALSE |
| N=C(N)N | FALSE |
| COc1ccccc1OCC(O)CO (centres undefined) | FALSE |
| CC(C)(C)NC[C@H](O)c1ccc(O)c(CO)c1 | FALSE |
| CCCSc1ccc2nc(NC(=O)OC)[nH]c2c1 | FALSE |
| CN[C@@H]1[C@H](O)[C@H](NC)[C@H]2O[C@@]3(O)C(=O)C[C@@H](C)O[C@H]3O[C@@H]2[C@H]1O | FALSE |
| CC(=O)Nc1ccc(S(=O)(=O)Nc2onc(C)c2C)cc1 | FALSE |
| C/C1=C/CC(C)(C)/C=C/C/C(C)=C/CC1 | FALSE |
| CN(C)[C@@H]1C(=O)C(C(N)=O)=C(O)[C@@]2(O)C(=O)C3=C(O)c4c(O)ccc(Cl)c4[C@@H](O)[C@H]3C[C@@H]12 | FALSE |
| CC(=O)OCC(=O)[C@@]1(O)[C@H](C)CC2C3CCC4=CC(=O)C=C[C@]4(C)[C@@]3(F)[C@@H](O)C[C@@]21C (some centres undefined) | FALSE |
| CCCOc1ccc2nc(NC(=O)OC)[nH]c2c1 | FALSE |
| NC(=O)NC(=O)Cc1ccccc1 | FALSE |
| O=C(NCO)c1cccnc1 | FALSE |
| CC12CCC3C(CC3(C)C)C(C)(CCC1=O)O2 (centres undefined) | FALSE |
| O=C(O)c1cc(O)c2c(c1)[C@@H]([C@H]1c3cc(C(=O)O)cc(O)c3C(=O)c3c(O[C@H]4O[C@H](CO)[C@@H](O)[C@H](O)[C@H]4O)cccc31)c1cccc(O[C@H]3O[C@H](CO)[C@@H](O)[C@H](O)[C@H]3O)c1C2=O | FALSE |
| NCC(N)C(=O)c1ccccc1 (centres undefined) | FALSE |
| CNNC | FALSE |
| CC(=O)Oc1ccc(/C=C/c2cc(OC(C)=O)cc(OC(C)=O)c2)cc1 | FALSE |
| CS(=O)(=O)Nc1ccc([N+](=O)[O-])cc1Oc1ccccc1 | FALSE |
| CCN(CC)CCOCCOC(=O)C1(c2ccccc2)CCCC1 | FALSE |
| CCN(CC)CCOC(=O)C1(C2CCCCC2)CCCCC1 | FALSE |
| OC[C@H]1O[C@@](CO)(O[C@@H]2O[C@H](CO)[C@@H](O)[C@H](O)[C@H]2O)[C@@H](O[C@@H]2O[C@H](CO)[C@@H](O)[C@H](O)[C@H]2O)[C@@H]1O | FALSE |
| CC(CCc1ccccc1)NCC(O)c1ccc(O)c(C(N)=O)c1 (centres undefined) | FALSE |
| NC(=O)c1cccnc1 | FALSE |
| O=C(O)c1ccc(S(=O)(=O)N(Cl)Cl)cc1 | FALSE |
| O=C(OOC(=O)c1ccccc1)c1ccccc1 | FALSE |
| CCCN(CCC)S(=O)(=O)c1ccc(C(=O)O)cc1 | FALSE |
| O=C(OCc1ccccc1)c1ccccc1 | FALSE |
| NC(Cn1ccc(=O)c(O)c1)C(=O)O (centres undefined) | FALSE |
| CC(C)=CC1C(C(=O)O)C1(C)C (centres undefined) | FALSE |
| CC(C)(C)NCC(O)c1ccc(O)c(CO)c1 (centres undefined) | FALSE |
| CC(=O)Oc1ccc(O)cc1 | FALSE |
| CC(CCC(=O)O)[C@H]1CCC2C3C(=O)C[C@@H]4CC(=O)CC[C@]4(C)C3CC(=O)[C@@]21C (some centres undefined) | FALSE |
| COc1cc(C/C=C/c2ccccc2)c(OC)cc1O | FALSE |
| CC1(C)CC2C1CC[C@]1(C)CCC3C(C(=O)O)CC(=O)O[C@@]32C1 (some centres undefined) | FALSE |
| O=P1(NCCCl)OCCCN1CCCl (centres undefined) | FALSE |
| O=C(O)c1cccnc1 | FALSE |
| C=C1c2c(Cl)ccc(O)c2C(O)=C2C(=O)[C@]3(O)C(O)=C(C(N)=O)C(=O)[C@@H](N(C)C)[C@@H]3[C@@H](O)[C@H]12 | FALSE |
| CC1(C)CC2C1CC[C@]1(CBr)CCC3C(CC(=O)O)C(=O)O[C@@]32C1 (some centres undefined) | FALSE |
| CN(C)[C@@H]1C(=O)C(C(=O)NCN2CCCC2)=C(O)[C@@]2(O)C(=O)C3=C(O)c4c(O)cccc4[C@@](C)(O)[C@H]3C[C@@H]12 | FALSE |
| CCC(C)C(=O)OC1[C@@H]2CC3=C4CC(=O)O[C@@H](c5ccoc5)[C@]4(C)CCC3[C@@](C)(C2=O)[C@@H](CC(=O)OC)C1(C)C (some centres undefined) | FALSE |
| CN(C)[C@@H]1C(=O)C(C(N)=O)=C(O)[C@@]2(O)C(=O)C3=C(O)c4c(O)ccc(Cl)c4[C@@](C)(O)[C@H]3C[C@@H]12 | FALSE |
| CCOC(=O)[C@H](CCc1ccccc1)N[C@@H](C)C(=O)N1CCC[C@H]1C(=O)O | FALSE |
